# System: RAW 264.7 cells
# testDetails: Quantitative cell-permeability of FITC-labeled aMTD- or rPeptide-fused CRA recombinant proteins (flow cytometry)
# Assay type: cell-based
# protocolConditions: cell-permeability of aMTD-fused CRA recombinant protein relative to reference CPP (B: MTM12)
Kindly return TRUE if reported Relative Ratio (Fold) B is no lower than 20 Fold; return FALSE if it is lower.

substance | assignedLabel
61 (VAALPVLLAALP; Amino acid Sequence of aMTD61) [compound 61] | TRUE
910 (VAALLPAVVVAP; Amino acid Sequence of aMTD910) [compound 910] | TRUE
405 (LAAAVIPVAILP; Amino acid Sequence of aMTD405) [compound 405] | FALSE
525 (ALAIVVAPVAVP; Amino acid Sequence of aMTD525) [compound 525] | FALSE

Query: Does the reported Relative Ratio (Fold) B for 805 (LVLIAAAPIALP; Amino acid Sequence of aMTD805) [compound 805] fall at or above the 20 Fold mark?
Result: FALSE

Query: Does the reported Relative Ratio (Fold) B for 904 (AVLAVVAPVVAP; Amino acid Sequence of aMTD904) [compound 904] fall at or above the 20 Fold mark?
Result: TRUE

Query: Does the reported Relative Ratio (Fold) B for 522 (ALLVIAVPAVAP; Amino acid Sequence of aMTD522) [compound 522] fall at or above the 20 Fold mark?
Result: FALSE

Query: Does the reported Relative Ratio (Fold) B for 803 (AIALAVPVLALP; Amino acid Sequence of aMTD803) [compound 803] fall at or above the 20 Fold mark?
Result: TRUE

Query: Does the reported Relative Ratio (Fold) B for 850 (LVIALAAPVALP; Amino acid Sequence of aMTD850) [compound 850] fall at or above the 20 Fold mark?
Result: FALSE

Query: Does the reported Relative Ratio (Fold) B for 603 (VLVALAAPVIAP; Amino acid Sequence of aMTD603) [compound 603] fall at or above the 20 Fold mark?
Result: TRUE

Query: Does the reported Relative Ratio (Fold) B for 141 (AVIVLPALAVAP; Amino acid Sequence of aMTD141) [compound 141] fall at or above the 20 Fold mark?
Result: FALSE

Query: Does the reported Relative Ratio (Fold) B for 851 (VLAVVLPAVALP; Amino acid Sequence of aMTD851) [compound 851] fall at or above the 20 Fold mark?
Result: TRUE

Query: Does the reported Relative Ratio (Fold) B for 565 (VAIVLVAPAVAP; Amino acid Sequence of aMTD565) [compound 565] fall at or above the 20 Fold mark?
Result: FALSE

Query: Does the reported Relative Ratio (Fold) B for 895 (AIIIVVPAIAAP; Amino acid Sequence of aMTD895) [compound 895] fall at or above the 20 Fold mark?
Result: TRUE

Query: Does the reported Relative Ratio (Fold) B for 3 (AALLVPAAVLAP; Amino acid Sequence of aMTD3) [compound 3] fall at or above the 20 Fold mark?
Result: FALSE

Query: Does the reported Relative Ratio (Fold) B for 806 (LVALAVPAAVLP; Amino acid Sequence of aMTD806) [compound 806] fall at or above the 20 Fold mark?
Result: TRUE

###

# Test system: RAW 264.7 cells
# testDetails: Quantitative cell-permeability of FITC-labeled aMTD- or rPeptide-fused CRA recombinant proteins (flow cytometry)
# Assay type: cell-based
# protocolConditions: cell-permeability of aMTD-fused CRA recombinant protein relative to reference CPP (B: MTM12)
experimentalEndpoint: Relative Ratio (Fold) B
Write the number in Fold without appending the unit.

substance | quantityUnit | Relative Ratio (Fold) B
902 (ALVAPLLAVAVP; Amino acid Sequence of aMTD902) [compound 902] | Fold | 5.1
848 (AVAIVVLPAVAP; Amino acid Sequence of aMTD848) [compound 848] | Fold | 6.7
321 (IVAVALPALAVP; Amino acid Sequence of aMTD321) [compound 321] | Fold | 65.2
685 (ALLVAVLPAALP; Amino acid Sequence of aMTD685) [compound 685] | Fold | 5.9
261 (LVLVPLLAAAAP; Amino acid Sequence of aMTD261) [compound 261] | Fold | 12.3
242 (AALLVPALVAAP; Amino acid Sequence of aMTD242) [compound 242] | Fold | 9.7
863 (AAVVLLPIIAAP; Amino acid Sequence of aMTD863) [compound 863] | Fold | 9.3

Moving on to another substance below.
Query: Tell us which Relative Ratio (Fold) B value is on record for 643 (LALVLAAPAIVP; Amino acid Sequence of aMTD643) [compound 643]
Result: 7.9
